Molecular target: A1PI (Homo sapiens, UniProt P01009)
Construct: Human plasma is currently the only approved source of therapeutic AlPI
Sequence (P01009 25-418): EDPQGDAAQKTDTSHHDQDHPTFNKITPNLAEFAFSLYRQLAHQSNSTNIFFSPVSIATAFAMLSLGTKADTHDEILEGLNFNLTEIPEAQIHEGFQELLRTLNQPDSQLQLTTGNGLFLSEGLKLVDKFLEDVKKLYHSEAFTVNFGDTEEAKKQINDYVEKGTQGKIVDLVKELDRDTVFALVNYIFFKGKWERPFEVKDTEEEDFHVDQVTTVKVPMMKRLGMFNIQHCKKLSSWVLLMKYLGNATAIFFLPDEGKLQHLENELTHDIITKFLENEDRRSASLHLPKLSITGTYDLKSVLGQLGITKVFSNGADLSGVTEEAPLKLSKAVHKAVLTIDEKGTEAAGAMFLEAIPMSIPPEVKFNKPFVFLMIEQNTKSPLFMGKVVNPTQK
Test: A1PI purification from 5 mg hSA + 1 mg A1PI on peptide column, A1PI mass balance
Format: binding
Conditions: A1PI; 5 mg hSA + 1 mg A1PI, 4° C.; relative to total eluted
Ends that are not written are not given here.
endpoint: Percent Eluted by Fraction, 2% Ac. Acid (%)
Answers are plain numbers, in %.

Reference set, count: 4
>>> print(df.to_string())
   substance                                 endpoint  units_symbol  measured_value
0     VIWLVR  Percent Eluted by Fraction, 2% Ac. Acid             %              35
1     RFIYYT  Percent Eluted by Fraction, 2% Ac. Acid             %              66
2     RAFWYI  Percent Eluted by Fraction, 2% Ac. Acid             %              50
3     RLWRYG  Percent Eluted by Fraction, 2% Ac. Acid             %              18

Provide the reported Percent Eluted by Fraction, 2% Ac. Acid of each entry below, same order.
1. IWRKYS
2. YKFRFW
3. PYWIVR
4. RYRIFI
5. ARWYIH
6. LIVHRW
7. QYHFWY

a:
[0, 60, 27, 72, 53, 38, 46]

Go through the items and report each one's Percent Eluted by Fraction, 2% Ac. Acid.
1. IIWLYK
2. WKLWRW

a:
23
9
